Would you mind telling me the reported IC50 of each entry?
methodSummary: Cell-based activity under Prompt Conditions: Cell-based activity under Prompt Conditions. Rat or human NHE3-mediated Na+-dependent H+ antiport was measured using a modification of the pH sensitive dye method originally reported by Paradiso (PNAS USA. 81:7436-7440, 1984). Opossum kidney (OK) cells were obtained from the ATCC and propagated per their instructions. The rat NHE3 gene (GenBank M85300) or the human NHE3 gene (GenBank NM_004174.1) was introduced into OK cells via electroporation, and cells were seeded into 96 well plates and grown overnight. Medium was aspirated from the wells, cells were washed twice with NaCl-HEPES buffer (100 mM NaCl, 50 mM HEPES, 10 mM glucose, 5 mM KCl, 2 mM CaCl2, 1 mM MgCl2, pH 7.4), then incubated for 30 min at room temperature with NH4Cl-HEPES buffer (20 mM NH4Cl, 80 mM NaCl, 50 mM HEPES, 5 mM KCl, 2 mM CaCl2, 1 mM MgCl2, pH 7.4) containing 5 μM bis(acetoxymethyl) 3,3′-(3′,6′-bis(acetoxymethoxy)-5-((acetoxymethoxy)carbonyl)-3-oxo-3H-spiro[isobenzofuran-1,9′-xanthene]-2′,7′-diyl)dipropanoate (BCECF-AM).Cells were washed twice with Ammonium free, Na+-free HEPES (100 mM choline, 50 mM HEPES, 10 mM glucose, 5 mM KCl, 2 mM CaCl2, 1 mM MgCl2, pH 7.4) and incubated in the same buffer for 10 minutes at room temperature to lower intracellular pH. […] Initial rates were plotted as the average 2 or more replicates, and pIC50 values were estimated using GraphPad Prism.
Numbers only, in nM.

Tell me its IC50 given `CN(C)CC(=O)NC(CCC(=O)NCCOCCOCCNS(=O)(=O)c1cccc([C@@H]2CN(C)Cc3c(Cl)cc(Cl)cc32)c1)(CCC(=O)NCCOCCOCCNS(=O)(=O)c1cccc([C@@H]2CN(C)Cc3c(Cl)cc(Cl)cc32)c1)CCC(=O)NCCOCCOCCNS(=O)(=O)c1cccc([C@@H]2CN(C)Cc3c(Cl)cc(Cl)cc32)c1` as the entry. 79.4

Please find the next compound below.
Tell me its IC50 given `NCCOCCOCCN1CCN(c2ccc(-c3nc(N=C(N)N)nc4ccc(Cl)cc34)cc2)CC1` as the entry. 100
